system: KgpF; test: Prenylation of artificial cyclic peptides with 160 μM KgpF at 0° C., 20 hours (Conditions 13/14 and 19/20; Examples 10, 14, 19; Tables 6 and 18); assay type: biochemical, Microcystis aeruginosa; set-up: key: 5: strong intensity; 4: medium intensity; 3: weak intensity; 2: very weak intensity; 1: no peak; N/A: not observed; conditions: Table 6; 160 μM KgpF, 2 mM DMAPP, 0° C., 20 hours; unmodified peptide peak
Sequence (as listed by the source): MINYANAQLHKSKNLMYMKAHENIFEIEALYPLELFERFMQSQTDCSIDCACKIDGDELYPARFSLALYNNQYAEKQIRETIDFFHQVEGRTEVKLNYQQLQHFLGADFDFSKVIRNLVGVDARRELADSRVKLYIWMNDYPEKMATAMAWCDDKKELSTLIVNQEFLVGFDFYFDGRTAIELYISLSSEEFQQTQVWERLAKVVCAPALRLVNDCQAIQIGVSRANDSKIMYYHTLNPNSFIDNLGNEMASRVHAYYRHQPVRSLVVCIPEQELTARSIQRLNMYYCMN
Non-standard residues stand in square brackets, D forms with d. No end group written: not given here.
Property: MALDI-TOF-MS peak intensity, Number of additions 0; scope: individual substances
Measurement kind: MALDI-TOF-MS peak intensity, Number of additions 0

Substance	Experimental result
Clone-M7: artificial cyclic peptide containing a plurality of Trps (Ac-[dY]LWVLRSDNTPWVC; thioether (positions not given here); not fully specified (bridges))	1
Clone-M9: artificial cyclic peptide containing a plurality of Trps (Ac-[dY]SFHWGLAVWDHNC; thioether (positions not given here); not fully specified (bridges))	1
